# Test Target: APOL1 (Homo sapiens, UniProt O14791)
# Sequence (O14791 whole entry S342G/I384M, form open): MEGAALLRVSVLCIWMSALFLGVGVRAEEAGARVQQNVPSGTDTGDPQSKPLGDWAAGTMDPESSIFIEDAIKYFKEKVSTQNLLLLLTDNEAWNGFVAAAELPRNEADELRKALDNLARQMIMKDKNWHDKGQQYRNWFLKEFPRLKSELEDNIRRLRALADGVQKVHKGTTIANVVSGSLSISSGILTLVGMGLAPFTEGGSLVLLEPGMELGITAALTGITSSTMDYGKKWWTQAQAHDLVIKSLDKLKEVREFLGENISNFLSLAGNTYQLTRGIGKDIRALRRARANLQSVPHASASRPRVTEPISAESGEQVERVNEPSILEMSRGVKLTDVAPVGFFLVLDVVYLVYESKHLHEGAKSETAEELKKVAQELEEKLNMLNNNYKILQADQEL
# Protocol Summary: MultiTox-Fluor Multiplex Cytotoxicity Assay in tet-inducible APOL1 T-REx-HEK293 cells (cell rescue, ratio of dead to live cells)
# Condition Description: tet-inducible transgenic APOL1 T-REx-HEK293 cell lines, 50 ng/mL tet, 24 hours; read-out: IP50 (i.e., IC50 for cell proliferation)
Metric Name: IC50

Lab note: record IC50 of C[C@H]1C[C@@]2(CCN1CC1CCC(=O)N1)OCCc1cc(CC(F)F)sc12 (stereo partly shown) tested on APOL1 (Homo sapiens, UniProt O14791).
100 to 500 nM

Lab note: record IC50 of `COc1cc(OCC(N)=O)ccc1CN1CC[C@@]2(C[C@H]1C)OCCc1cc(Cl)sc12` tested on APOL1 (Homo sapiens, UniProt O14791).
< 100 nM

Lab note: record IC50 of `C[C@H]1C[C@@]2(CCN1C[C@@H](O)C(N)=O)OCCc1cc(CC(F)F)sc12` tested on APOL1 (Homo sapiens, UniProt O14791).
< 100 nM

Lab note: record IC50 of `CCc1cc2c(s1)CCOC21CCN(Cc2ccc(C(=O)Nc3c[nH]c4ccccc34)nc2)CC1` tested on APOL1 (Homo sapiens, UniProt O14791).
< 100 nM
